- Assay procedure: Therapeutic indices, ED90 and LD50 by the method of Miller and Tainter
- Design: species or system Swiss white mice
- Measurement context: mouse, in vivo; lethal dose to 50% of the animals
- Description: The therapeutic indices for the present compounds (I), their effective dose (ED90) and lethal dose (LD50) were determined according to the method of Miller and Tainter (Reported by R. A. Turner, "Screening Methods in Pharmacology", Academic Press, New York, pages 61-62 (1976)).
Reported property: LD50 (mg/kg)
Dear colleague, please return just the value in mg/kg, with no unit written.

Look over these answered cases.
Molecule | Obs value
OCc1ccc[n+]([Au-]([Cl])([Cl])[Cl])c1 [Ex. 6] | 90
O=C(O)Cc1ccc[n+]([Au-]([Cl])([Cl])[Cl])c1 [Ex. 4, trichloro-(3-pyridyacetic acid)gold(III)] | 150
Cn1cc[n+]([Au-]([Cl])([Cl])[Cl])c1 [Ex. 2, Trichloro(N-Methylimidazole)Gold(III)] | 90
O=C(O)c1ccc[n+]([Au-]([Cl])([Cl])[Cl])c1 [Ex. 1, Trichloro(Nicotinic Acid)Gold(III)] | 180
CC(=O)c1ccc[n+]([Au-]([Cl])([Cl])[Cl])c1 [Ex. 3, trichloro(3-acetylpyridine)gold(III)] | 140

# context switch: different molecule, same LD50
# query: LD50 of entry Cn1cc[n+]([Au-]([Br])([Br])[Br])c1 [Ex. 9, Tribromo(N-Methylimidazole)Gold(III)]
85
